- Tested on: Oryctolagus cuniculus
- assay procedure: 100 mg/kg of [14C]- radiolabeled compound was orally (gavage) administered in rabbit 1, and radioactivity content in lung was estimated
- run conditions: in vivo, po
measured parameter: Radioactivity concentration (µg/g)
Return type: number; implicit unit µg/g.

Query block: Query Radioactivity concentration for CN1CCS/C1=N\C(=O)CCC(=O)/N=C1/SCCN1C
Result block: 36.3

====

- Test system: Oryctolagus cuniculus
- assay procedure: Radioactivity measurements were performed following oral administration of the 100 mg/kg in rabbit 5 after 2 hr brain
- Assay type: ADME, organism-based
- Design: dose 100 mg/kg, route oral
- run conditions: in vivo
measured parameter: Radioactivity level (µg/g)
State the answer as a number, implicitly in µg/g.

Query block: Look up Radioactivity level of CN1CCS/C1=N\C(=O)CCC(=O)/N=C1/SCCN1C and report it.
Result block: 17.8
